tested on: carrageenin-induced pedal edema; assay: inhibition of carrageenin-induced pedal edema in rats; assay type: in vivo, rats (male Wistar); conditions: Rattus norvegicus; oral, one hour before carrageenin; edema at 3 hours; dose which reduced edema formation by 25% or more in 50% of the animals; read-out: Anti-Inflammatory Activity (ED50)
Structures can show the parent of a compound that is named as a salt.
Listing: ED50 of selected compounds

Here's what some known entries look like.
Task item: What ED50 appears in the records for this compound with carrageenin-induced pedal edema? COc1ccc2ccn3c(C)nnc3c2c1
Reply: 115 mg/kg

Task item: Please state recorded ED50 (tested on carrageenin-induced pedal edema) of Cc1ccc2ccn3c(C(F)(F)F)nnc3c2c1
Reply: ~160 mg/kg

Task item: Fill in the recorded ED50 for this compound, with carrageenin-induced pedal edema as test system: Cl.c1c2c(cc3c1OCO3)-c1nncn1CC2
Reply: ~160 mg/kg

Task item: Given the entry O=C(O)c1cn2c(C(F)(F)F)nnc2c2ccccc12 [Potassium Salt] , what ED50 was observed with carrageenin-induced pedal edema?
Reply: > 160 mg/kg

Task item: Item: COc1ccc2c(c1)-c1nnc(C(F)(F)F)n1CC2.Cl Test system: carrageenin-induced pedal edema Read-out: ED50 Value: ?
Reply: 38 mg/kg

Task item: Query for carrageenin-induced pedal edema: what ED50 does the record show for Br.Cc1nnc2c3cccc(C#N)c3ccn12 ?
Reply: < 100 mg/kg

Task item: Tell me reported ED50 for CC(=O)OCc1nnc2c3ccccc3ccn12 , tested with carrageenin-induced pedal edema.
Reply: ~100 mg/kg

Task item: Entry Cc1nnc2c3cccc(Cl)c3ccn12.Cl , system carrageenin-induced pedal edema: what ED50 was measured?
Reply: > 30 mg/kg

Task item: Find the measured ED50: item FC(F)(F)c1nnc2c3cc(Cl)ccc3ccn12 , target or system carrageenin-induced pedal edema.
Reply: ~160 mg/kg

Proceed to the following item.
Task item: Find ED50 (carrageenin-induced pedal edema) for the entry Cl.Cl.Clc1cccc2c1ccn1c(CN3CCOCC3)nnc21
Reply: ~160 mg/kg

* * *

tested on: carrageenin-induced pedal edema; assay: inhibition of carrageenin-induced pedal edema in rats; format: in vivo, rats (male Wistar); details: Rattus norvegicus; oral, one hour before carrageenin; edema at 3 hours; dose which reduced edema formation by 25% or more in 50% of the animals; read-out: Anti-Inflammatory Activity (ED50)
Sorting guide: entries reporting ED50 beneath 100 mg/kg go in the Met pile, the rest go in the Not met pile.

Worked set:
Task item: Identify whether the molecule COc1ccc2c(ccn3c(C)nnc23)c1 records ED50 below 100 mg/kg.
Reply: Not met

Task item: I wonder whether CCN(CC)CCNc1nnc2c3ccccc3ccn12 has ED50 below 100 mg/kg. Can you tell?
Reply: Not met

Task item: Quick check: does COc1ccc2ccn3c(C(F)(F)F)nnc3c2c1 have ED50 under 100 mg/kg?
Reply: Met

Task item: Determine if FC(F)(F)c1nnc2c3cc4c(cc3ccn12)OCO4 shows ED50 strictly lower than 100 mg/kg.
Reply: Met

// next entry
Task item: A record lists CC(C)Cc1nnc2c3ccccc3ccn12 . Is its ED50 below 100 mg/kg?
Reply: Not met
